Readings of SPR binding level for the listed binders
Molecular target: group 3: OR1I1, OR51B6, OR6C1, ATG9A, RP1 and NR2E1 homologous peptide/HLA-A*02:01 complexes (mixed)
Assay: SPR (BIAcore T200), crude scFv captured, mixed complexes flowed over
Please give a number only; it is taken to be in RU.

binder: 34-AS170036 VL1VH1-98I108A (scFv) scFv: QSALTQPRSVSGSPGQSVTISCAGTSSDVGSENYVSWYQQHPGKAPKLMIYQVNKRASGVPDRFSGSKSGNTASLTISGLQAEDEADYYCASYRSSDINIVFGGGTKLTVLGGGGSGGGGSGGGGSEVQLVESGGGLVQPGGSLRLSCAASGFTFSSYAMSWVRQAPGKGLEWVSTINSGTGSPYYADSVKGRFTISRDNSKNTLYLQMNSLRAEDTAVYYCAKNFFDGSWFLAPPAMDYWGQGTLVTVSSHHHHHH
SPR binding level (RU): 3.6

binder: 82-AS170036 VL1VH1-57M98Q108A (scFv) scFv: QSALTQPRSVSGSPGQSVTISCAGTSSDVGSENYVSWYQQHPGKAPKLMIYQVNKRASGVPDRFSGSKSGNTASLTISGLQAEDEADYYCASYRSSDQNIVFGGGTKLTVLGGGGSGGGGSGGGGSEVQLVESGGGLVQPGGSLRLSCAASGFTFSSYAMSWVRQAPGKGLEWVSTINSGTGMPYYADSVKGRFTISRDNSKNTLYLQMNSLRAEDTAVYYCAKNFFDGSWFLAPPAMDYWGQGTLVTVSSHHHHHH
SPR binding level (RU): 4.7

Consider the record given below.
// query Consider the binder 10-AS170036 VL1VH1-57K98F (scFv) scFv: QSALTQPRSVSGSPGQSVTISCAGTSSDVGSENYVSWYQQHPGKAPKLMIYQVNKRASGVPDRFSGSKSGNTASLTISGLQAEDEADYYCASYRSSDFNIVFGGGTKLTVLGGGGSGGGGSGGGGSEVQLVESGGGLVQPGGSLRLSCAASGFTFSSYAMSWVRQAPGKGLEWVSTINSGTGKPYYADSVKGRFTISRDNSKNTLYLQMNSLRAEDTAVYYCAKNFFDGSWFLGPPAMDYWGQGTLVTVSSHHHHHH and give its measured SPR binding level.
// result 1
